Parameter: MIC. Scope: all listed entries.
Test system: Saccharomyces cerevisiae
Assay: Antifungal activity against Saccharomyces cerevisiae ATCC 7754 after 48 hr by broth macrodilution method
Settings: ATCC 7754, 48 h
Please reply with the bare figure in µg/mL and do not write the unit itself.

CCCCCCCCCCO; 50

Quick one: MIC for CCCCCCCCCO ? 100

Quick one: MIC for O=C(O)c1cccc(O)c1 [3-HYDROXYBENZOIC ACID] ? 3200

---

Parameter: MIC. Scope: all listed entries.
System: Saccharomyces cerevisiae
Experiment: Antifungal activity against Saccharomyces cerevisiae ATCC 7754 after 48 hr by broth macrodilution method
Conditions: ATCC 7754, 48 h

The cases that follow already have their MIC on record.
CCCCCCCCCCCCOC(=O)c1cc(O)c(O)c(O)c1 [DODECYL GALLATE]; > 1600 µg/mL
CCCCCCCCCOC(=O)c1ccccc1 [NONYL BENZOATE]; > 400 µg/mL
CCCCCCCCCCCOC(=O)c1cc(O)c(O)c(O)c1 [UNDECYL GALLATE]; > 1600 µg/mL
O=C(O)c1cc(O)c(O)c(O)c1; > 3200 µg/mL
CCCCCCCO; 800 µg/mL
CCCCCCCCCOC(=O)c1ccc(O)cc1 [NONYL 4-HYDROXYBENZOATE]; > 400 µg/mL
CCCCCCCCCOC(=O)c1ccc(O)c(O)c1 [NONYL 3,4-DIHYDROXYBENZOATE]; 6.25 µg/mL
CCCCCCCCCOC(=O)c1ccc(OC)c(O)c1; > 400 µg/mL

Quick one: MIC for CCCCCCCCCCCCCO ? > 1600 µg/mL

Quick one: MIC for COC(=O)c1cc(O)c(O)c(O)c1 ? > 3200 µg/mL

Quick one: MIC for CCCCCCCOC(=O)c1cc(O)c(O)c(O)c1 [HEPTYL GALLATE] ? 100 µg/mL

Quick one: MIC for CCCCCCCCCCOC(=O)c1cc(O)c(O)c(O)c1 [DECYL GALLATE] ? 12.5 µg/mL

---

Test system: Saccharomyces cerevisiae
Assay: Antifungal activity against Saccharomyces cerevisiae ATCC 7754 after 48 hr by broth macrodilution method
Conditions: ATCC 7754, 48 h
Parameter: MIC. Scope: all listed entries.
Please reply with the bare figure in µg/mL and do not write the unit itself.

Quick one: MIC for O=C(O)c1ccc(O)cc1 ? 1600

Quick one: MIC for O=C(OC1CCC2CCCCC2C1)c1cc(O)c(O)c(O)c1 (centres undefined) [DECAHYDRO-2-NAPHTHYL GALLATE] ? 50
